In this section, each of the compounds is paired with its reported Incorporation.
Organism: Mus musculus
Procedure Details: [3H]-TdR uptake measured by spleen cell proliferation assay by adding compound dose of 1 ng/mL
Format: functional
Entry rule: numbers only, all in c.p.m..

1. CCCCCCCCCCCCCCCC[C@H](CO[C@H]1O[C@@H](CO)[C@H](O)[C@H](O)[C@@H]1O)NC(=O)CCCCCCCCCCNC(=O)CCCCCNC(=O)CCCC[C@@H]1SC[C@@H]2NC(=O)N[C@@H]21: 4803
2. CCCCCCCCCCCCCC[C@@H](O)[C@@H](O)[C@H](CO[C@H]1O[C@@H](CO)[C@H](O)[C@H](O)[C@@H]1O)NC(=O)CCCCCCCCCCNC(=O)CCCCCNC(=O)CCCC[C@@H]1SC[C@@H]2NC(=O)N[C@@H]21 (stereo in doubt; form 1): 4811
3. CCCCCCCCCCCCCCCCCCCCCCCCCC(=O)N[C@@H](CO[C@H]1O[C@H](CO)[C@H](O)[C@H](O)[C@H]1O)[C@H](O)[C@H](O)CCCCCCCCCCCCCC [RGI-7000]: 13499

# next compound below
Short answer for CCCCCCCCCCCCCCC[C@@H](O)[C@H](CO[C@H]1O[C@@H](CO)[C@H](O)[C@H](O)[C@@H]1O)NC(=O)CCCCCCCCCCNC(=O)CCCCCNC(=O)CCCC[C@@H]1SC[C@@H]2NC(=O)N[C@@H]21 : Incorporation was 4628
